# MEASUREMENT TARGET: human mAChR M4 (Homo sapiens, UniProt P08173)
# ASSAY SUMMARY: mAChR M4 cell-based functional assay: calcium mobilization (Fluo-4, FDSS), potentiation of EC20 acetylcholine response in hM4-Gqi5 CHO-K1 cells
# STATED CONDITIONS: potentiation of EC20 acetylcholine response, calcium mobilization, human M4
READOUT: log10(EC50) (log10 of the value in nM)
Response schema: value (number) is log10 of EC50 in units of nM.

ITEM SMILES: Cc1cc2nc(C(C)(C)O)cc(=O)n2nc1N1CCc2ncc(C(F)(F)F)cc2C1
MEASUREMENT TARGET: human mAChR M4 (Homo sapiens, UniProt P08173)
log10(EC50): 2.27

# log10(EC50) (compound: `COc1cnccc1Nc1cnc2c(c1)CN(c1nn3c(=O)ccnc3cc1C)CC2` ) is 3.43

get_value(item= `Cc1c(N2CCc3ncc(N4CCCn5nccc54)cc3C2)nn2c(=O)cc(C(F)F)nc2c1C` , readout=log10(EC50)) returns 1.15

// field: log10(EC50); key: `Cc1ccc2c(-c3cnc4c(c3)CN(c3nn5c(=O)ccnc5cc3C)CC4)cccc2n1` ; value = 2.51

Measured log10(EC50) of `Cc1cc(=O)n2nc(N3CCc4ncc(-c5cnn(CCN(C)C)c5)cc4C3)c(C)c(C)c2n1` : 3.15

Lab note: `Cc1cc(=O)n2nc(N3CCc4ncc(-c5ccc(F)cc5F)cc4C3)c(C)cc2n1` gave log10(EC50) of 2.53

// log10(EC50) lookup, compound = `Cc1cc2nccc(=O)n2nc1N1CCc2ncc(-c3cnn(C(F)F)c3C)cc2C1` , result: 2.64

Given item `COCc1cc(=O)n2nc(N3CCc4ncc(-c5ccc(C)nc5)cc4C3)c(C)c(C)c2n1` , the value recorded as its log10(EC50) is 2.25

----------
# MEASUREMENT TARGET: human mAChR M4 (Homo sapiens)
# Sequence (P08173 1-479): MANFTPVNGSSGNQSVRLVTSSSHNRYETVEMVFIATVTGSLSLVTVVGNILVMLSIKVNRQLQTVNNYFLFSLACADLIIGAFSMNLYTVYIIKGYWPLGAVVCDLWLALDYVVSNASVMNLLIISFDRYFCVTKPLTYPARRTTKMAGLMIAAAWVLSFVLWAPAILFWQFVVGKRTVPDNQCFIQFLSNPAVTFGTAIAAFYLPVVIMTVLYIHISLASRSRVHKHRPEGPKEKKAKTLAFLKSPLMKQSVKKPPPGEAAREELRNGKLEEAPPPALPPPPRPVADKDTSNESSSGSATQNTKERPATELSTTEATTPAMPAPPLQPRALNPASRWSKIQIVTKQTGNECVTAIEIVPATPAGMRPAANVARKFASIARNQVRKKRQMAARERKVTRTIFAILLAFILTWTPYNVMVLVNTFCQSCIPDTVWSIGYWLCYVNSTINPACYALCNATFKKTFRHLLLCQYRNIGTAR
# ASSAY SUMMARY: mAChR M4 cell-based functional assay: calcium mobilization (Fluo-4, FDSS), potentiation of EC20 acetylcholine response in hM4-Gqi5 CHO-K1 cells
# STATED CONDITIONS: potentiation of EC20 acetylcholine response, calcium mobilization, human M4
# Procedure: […] Calcium flux was measured using the Functional Drug Screening System (FDSS) 6000 or 7000 (Hamamatsu Corporation, Tokyo, Japan) as an increase in the fluorescent static ratio. […] Agonist activity was analyzed as a concentration-dependent increase in calcium mobilization upon compound addition. Positive allosteric modulator activity was analyzed as a concentration-dependent increase in the EC20 acetylcholine response. […]
The molecules listed here are annotated with their EC50.
Answer format: numeric, nM implied, no suffix.

Please fill in: EC50 reported for `Cc1cncc(Nc2cnc3c(c2)CN(c2nn4c(=O)ccnc4cc2C)CC3)c1` = 184

EC50 reading for Cc1cc2nccc(=O)n2nc1N1CCc2ncc(N3CCOC(c4cccnc4)C3)cc2C1 (centres unmarked) : 1270

The molecule listed as `Cc1nc(-c2cccc(Nc3cnc4c(c3)CN(c3nn5c(=O)ccnc5cc3C)CC4)c2)cs1` shows EC50 equal to 639

----------
# MEASUREMENT TARGET: human mAChR M4 (Homo sapiens)
# Construct: expressed in transfected cells; host or cells: CHO-K1 (American Type Culture Collection), stably expressing hM4 and Gqi5
# ASSAY SUMMARY: mAChR M4 cell-based functional assay: calcium mobilization (Fluo-4, FDSS), potentiation of EC20 acetylcholine response in hM4-Gqi5 CHO-K1 cells
# STATED CONDITIONS: CHO-K1, % ACh maximum at 30 μM; human M4
READOUT: Emax at 30 µM (%)
Write the value in % as a bare number.

COMPOUND: COCc1cc(=O)n2nc(N3CCc4ncc(C(F)(F)F)cc4C3)c(C)cc2n1 [Compound 1-313]
READOUT: Emax at 30 µM
RECORDED MEASUREMENT: 96

For reference, reported Emax at 30 µM for Cc1ccc(-c2cnc3c(c2)CN(c2nn4c(=O)c(Cl)cnc4cc2C)CC3)cn1 [Compound 1-14] stands at 77

The compound identified as Cc1c(N2CCc3ncc(-c4ccc(F)nc4)cc3C2)nn2c(=O)ccnc2c1C [Compound 1-87] registered its Emax at 30 µM at 82

Reported Emax at 30 µM ( Cc1ccc2c(c1)N(c1cnc3c(c1)CN(c1nn4c(=O)ccnc4cc1C)CC3)C(C)CO2 (centres unmarked) [Compound 2-54] ) = 96

Kindly note the recorded Emax at 30 µM for COCc1cc(=O)n2nc(N3CCc4ncc(-c5cccc(F)c5)cc4C3)c(C)cc2n1 [Compound 1-358] , which is 83

Input COCc1cc(=O)n2nc(N3CCc4ncc(-c5ccc(OC(F)F)nc5)cc4C3)c(C)cc2n1 [Compound 1-374] . Output Emax at 30 µM: 67

Lab note: measured Emax at 30 µM of Cc1cc2nccc(=O)n2nc1N1CCc2ncc(Nc3cc(F)cc(C#N)c3)cc2C1 [Compound 2-104] was 85

Kindly note the recorded Emax at 30 µM for COCc1cc(=O)n2nc(N3CCc4ncc(-c5cnc(Cl)cc5C)cc4C3)c(C)cc2n1 [Compound 1-357] , which is 86

Query Cc1cc2nccc(=O)n2nc1N1CCc2ncc(-c3ccc(F)nc3F)cc2C1 [Compound 1-318] yields Emax at 30 µM of 55

Entry under test: Cc1ccc2c(-c3cnc4c(c3)CN(c3nn5c(=O)ccnc5cc3C)CC4)cccc2n1 [Compound 1-48] . Its Emax at 30 µM was 72

The recorded Emax at 30 µM for Cc1cc(=O)n2nc(N3CCc4ncc(-c5cccnc5C)cc4C3)c(C)c(C)c2n1 [Compound 1-122] is 93

Data point: Cc1cc2nccc(=O)n2nc1N1CCc2ncc(-c3ccc(C#N)nc3)cc2C1 [Compound 1-316] ; Emax at 30 µM = 71

// field: Emax at 30 µM; key: Cc1ccc(F)cc1-c1cnc2c(c1)CN(c1nn3c(=O)ccnc3cc1C)CC2 [Compound 1-432] ; value = 80

Entry Cc1cc(=O)n2nc(N3CCc4ncc(-c5ccc(F)cc5C)cc4C3)c(C)c(C)c2n1 [Compound 1-274] ; Emax at 30 µM = 84

// Emax at 30 µM value for Cc1cc2nccc(=O)n2nc1N1CCc2ncc(N3CCOC(c4ccccc4)C3)cc2C1 (centres unmarked) [Compound 2-66] : 79

Please fill in: Emax at 30 µM reported for Cc1ccc(F)cc1-c1cnc2c(c1)CN(c1nn3c(=O)ccnc3c(C)c1C)CC2 [Compound 1-194] = 83

Lookup result for COc1cnccc1-c1cnc2c(c1)CN(c1nn3c(=O)ccnc3c(C)c1C)CC2 [Compound 1-269] ; measured Emax at 30 µM: 88

Lab note: measured Emax at 30 µM of Cc1cc2nccc(=O)n2nc1N1CCc2ncc(-c3cc(F)ccn3)cc2C1 [Compound 1-354] was 63

Lookup result for Cc1c(N2CCc3ncc(-c4ccc(F)c(F)c4)cc3C2)nn2c(=O)cc(C(F)F)nc2c1C [Compound 1-283] ; measured Emax at 30 µM: 79

Consider Cc1cc(=O)n2nc(N3CCc4ncc(-c5cnccc5C)cc4C3)c(C)c(C)c2n1 [Compound 1-117] . Its measured Emax at 30 µM is 90

Lab note: measured Emax at 30 µM of COc1ccccc1-c1cnc2c(c1)CN(c1nn3c(=O)cc(C)nc3cc1C)CC2 [Compound 1-233] was 65

So for Cc1cc2nccc(=O)n2nc1N1CCc2ncc(N3CCOC(c4ccccc4)C3)cc2C1 (stereo in doubt) [Compound 2-96] , the logged Emax at 30 µM turned out to be 42

----------
# MEASUREMENT TARGET: human mAChR M4 (Homo sapiens, UniProt P08173)
# Sequence (P08173 1-479): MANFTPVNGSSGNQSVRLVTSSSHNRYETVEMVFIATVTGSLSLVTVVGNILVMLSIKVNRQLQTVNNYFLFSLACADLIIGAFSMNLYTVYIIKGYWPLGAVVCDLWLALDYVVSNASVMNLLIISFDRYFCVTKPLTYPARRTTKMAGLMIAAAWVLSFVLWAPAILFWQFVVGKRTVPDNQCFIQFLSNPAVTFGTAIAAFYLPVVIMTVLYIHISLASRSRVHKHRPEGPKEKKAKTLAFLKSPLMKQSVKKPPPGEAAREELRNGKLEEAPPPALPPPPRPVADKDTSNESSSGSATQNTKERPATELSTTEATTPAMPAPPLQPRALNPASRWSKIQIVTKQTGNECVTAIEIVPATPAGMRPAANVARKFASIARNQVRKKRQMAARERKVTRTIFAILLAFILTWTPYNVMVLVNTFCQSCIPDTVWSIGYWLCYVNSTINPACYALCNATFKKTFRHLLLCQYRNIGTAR
# ASSAY SUMMARY: mAChR M4 cell-based functional assay: calcium mobilization (Fluo-4, FDSS), potentiation of EC20 acetylcholine response in hM4-Gqi5 CHO-K1 cells
# STATED CONDITIONS: potentiation of EC20 acetylcholine response, calcium mobilization, human M4
# Description: […] Calcium flux was measured using the Functional Drug Screening System (FDSS) 6000 or 7000 (Hamamatsu Corporation, Tokyo, Japan) as an increase in the fluorescent static ratio. […] Agonist activity was analyzed as a concentration-dependent increase in calcium mobilization upon compound addition. Positive allosteric modulator activity was analyzed as a concentration-dependent increase in the EC20 acetylcholine response. […]
EC50 values, listed per item
Write the answer as a number in nM, unit excluded.

As a guide, the following entries are already answered.
COMPOUND: Cc1c(N2CCc3ncc(C(F)(F)F)cc3C2C)nn2c(=O)ccnc2c1C (single isomer, unassigned) [Compound 1-386]
EC50 [nM]: 950

COMPOUND: Cc1cc2ncc(Cl)c(=O)n2nc1N1CCc2ncc(-c3cn(C)nc3C)cc2C1
EC50 [nM]: 158

COMPOUND: Cc1nc(-c2cnc3c(c2)CN(c2nn4c(=O)ccnc4cc2C)CC3)cs1
EC50 [nM]: 271

COMPOUND: Cc1ccc(-c2cnc3c(c2)CN(c2nn4c(=O)ccnc4c(C4CC4)c2C)CC3)cn1
EC50 [nM]: 615

COMPOUND: Cc1cc2nc(C(F)F)cc(=O)n2nc1N1CCc2ncc(-c3ccnn3C)cc2C1
EC50 [nM]: 76

COMPOUND: Cc1cc2nccc(=O)n2nc1N1CCc2ncc(Nc3cccc(OC(F)F)c3)cc2C1
EC50 [nM]: 82

COMPOUND: Cc1c(N2CCc3ncc(-c4ccc(F)nc4)cc3C2)nn2c(=O)ccnc2c1C
EC50 [nM]: 128

Sample `Cc1cc2nccc(=O)n2nc1N1CCc2ncc(N3CCOC(C)(C)C3)cc2C1` ; EC50 observed: 113
